Reported AC50 values for the following compounds.
- TEST TARGET: D(3) dopamine receptor (Homo sapiens, UniProt P35462); further: assay procedure not described here
- Sequence (P35462 whole entry): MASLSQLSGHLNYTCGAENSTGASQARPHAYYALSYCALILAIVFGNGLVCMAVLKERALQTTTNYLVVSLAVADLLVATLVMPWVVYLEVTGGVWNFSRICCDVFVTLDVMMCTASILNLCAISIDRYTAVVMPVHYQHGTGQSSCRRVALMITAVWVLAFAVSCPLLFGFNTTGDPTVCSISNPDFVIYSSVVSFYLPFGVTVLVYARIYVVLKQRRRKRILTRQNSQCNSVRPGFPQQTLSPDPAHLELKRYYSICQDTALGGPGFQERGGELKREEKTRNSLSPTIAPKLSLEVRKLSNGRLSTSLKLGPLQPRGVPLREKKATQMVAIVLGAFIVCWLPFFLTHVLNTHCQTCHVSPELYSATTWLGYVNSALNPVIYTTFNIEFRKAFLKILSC

COMPOUND: Cc1cc(C(C)(C)C)c(O)c(C)c1CC1=NCCN1
AC50: 20.1 µM
//
COMPOUND: c1ccc([C@H]2CN3CCSC3=N2)cc1
AC50: > 30 µM
//
COMPOUND: Brc1c(NC2=NCCN2)ccc2nccnc12
AC50: > 30 µM
//
COMPOUND: CCOc1ccccc1OCC1CNCCO1 (configuration not stated)
AC50: > 10 µM
//
COMPOUND: CC(Oc1c(Cl)cccc1Cl)C1=NCCN1 (configuration not stated)
AC50: > 30 µM
//
COMPOUND: c1cnc(N2CCN(Cc3ccc4c(c3)OCO4)CC2)nc1
AC50: 7.1 µM
//
COMPOUND: CC[C@H]1[C@@H](O)[C@@H]2[C@H](CC[C@]3(C)[C@@H]([C@H](C)CCC(=O)O)CC[C@@H]23)[C@@]2(C)CC[C@@H](O)C[C@@H]12
AC50: > 30 µM
//
COMPOUND: COC(=O)C1=C(C)NC(C)=C(C(=O)OC2CCCN(Cc3ccccc3)C2)C1c1cccc([N+](=O)[O-])c1 (configuration not stated)
AC50: 16 µM
//
COMPOUND: CS(=O)(=O)c1ccc(C2=C(c3ccccc3)C(=O)OC2)cc1
AC50: > 10 µM
//
COMPOUND: Cn1c(=O)c2c(ncn2CC2OCCO2)n(C)c1=O
AC50: > 30 µM
//
COMPOUND: C=CCN1CCCC1CNC(=O)c1cc(S(N)(=O)=O)cc(OC)c1OC (configuration not stated) [VERALIPRIDE]
AC50: 0.003 µM
//
COMPOUND: COC(=O)C1=C(C)NC(C)=C(C(=O)OC(C)(C)CN(C)CCC(c2ccccc2)c2ccccc2)C1c1cccc([N+](=O)[O-])c1 (configuration not stated)
AC50: > 30 µM

----------
Reported AC50 values for the following compounds.
- TEST TARGET: Alpha-2C adrenergic receptor (Homo sapiens); further: assay procedure not described here
- Sequence (P18825 whole entry): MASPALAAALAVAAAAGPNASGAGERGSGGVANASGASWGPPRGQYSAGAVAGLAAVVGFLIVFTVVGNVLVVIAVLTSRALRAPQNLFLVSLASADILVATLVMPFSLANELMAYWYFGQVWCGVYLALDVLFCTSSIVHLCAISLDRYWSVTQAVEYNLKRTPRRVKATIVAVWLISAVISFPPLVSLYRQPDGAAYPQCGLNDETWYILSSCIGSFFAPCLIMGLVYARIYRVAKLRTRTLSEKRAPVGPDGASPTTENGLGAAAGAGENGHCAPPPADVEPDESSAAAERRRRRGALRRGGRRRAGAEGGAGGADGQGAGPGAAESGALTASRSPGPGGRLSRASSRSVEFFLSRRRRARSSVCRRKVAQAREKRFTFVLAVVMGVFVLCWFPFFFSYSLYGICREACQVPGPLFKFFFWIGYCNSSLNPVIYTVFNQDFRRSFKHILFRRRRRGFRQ
- Format: functional

COMPOUND: CC(=O)OCC(=O)[C@@]12N=C(C)O[C@@H]1C[C@H]1[C@@H]3CCC4=CC(=O)C=C[C@]4(C)[C@H]3[C@@H](O)C[C@@]12C
AC50: > 30 µM
--
COMPOUND: OC(CNCC(O)C1CCc2cc(F)ccc2O1)C1CCc2cc(F)ccc2O1 (stereo unspecified)
AC50: 2 µM
--
COMPOUND: CC(C)=CCC/C(C)=C/C=C/C(C)=C/C=C/C(C)=C/C=C/C=C(C)/C=C/C=C(C)/C=C/C=C(\C)CCC=C(C)C
AC50: > 30 µM
--
COMPOUND: C=CCN1C[C@H](C(=O)N(CCCN(C)C)C(=O)NCC)C[C@@H]2c3cccc4[nH]cc(c34)C[C@H]21
AC50: 0.3 µM
--
COMPOUND: C=CCC1(C(C)CC)C(=O)NC(=O)NC1=O (stereo unspecified)
AC50: > 10 µM
--
COMPOUND: CCOc1ccccc1OCC1CNCCO1 (stereo unspecified)
AC50: > 10 µM
--
COMPOUND: CO/N=C(\C(=O)N[C@@H]1C(=O)N2C(C(=O)O)=C(CSc3nnnn3C)CS[C@H]12)c1csc(N)n1
AC50: > 30 µM
--
COMPOUND: O=C(O[C@H]1C[C@H]2CC[C@@H](C1)[N+]21CCCC1)C(O)(c1ccccc1)c1ccccc1
AC50: > 30 µM
--
COMPOUND: Nc1nc(/C(=C/CC(=O)O)C(=O)N[C@@H]2C(=O)N3C(C(=O)O)=CCS[C@H]23)cs1
AC50: > 30 µM
--
COMPOUND: NS(=O)(=O)Cc1noc2ccccc12 [ZONISAMIDE]
AC50: > 10 µM
--
COMPOUND: O=C(O)CCCCCCCC(=O)O
AC50: > 10 µM
--
COMPOUND: CCCN1C[C@H](CSC)C[C@@H]2c3cccc4[nH]cc(c34)C[C@H]21 [PERGOLIDE]
AC50: 1.04 µM
--
COMPOUND: CCCC(C)C1(CC)C(=O)NC(=O)NC1=O (stereo unspecified)
AC50: > 30 µM
--
COMPOUND: Clc1ccc2nsnc2c1NC1=NCCN1
AC50: 1.31 µM
--
COMPOUND: COC1=C(OC)C(=O)C(C/C=C(\C)CC/C=C(\C)CC/C=C(\C)CC/C=C(\C)CC/C=C(\C)CC/C=C(\C)CC/C=C(\C)CC/C=C(\C)CC/C=C(\C)CCC=C(C)C)=C(C)C1=O
AC50: > 30 µM
--
COMPOUND: C[C@]12CC[C@H]3[C@@H](CCC4=CC(=O)CC[C@@]43C)[C@@H]1CC[C@@H]2O
AC50: > 10 µM
--
COMPOUND: Cn1nnc2c(C(N)=O)ncn2c1=O [TEMOZOLOMIDE]
AC50: > 30 µM
--
COMPOUND: COc1ccc2c3c1O[C@H]1[C@@H](O)CC[C@H]4[C@@H](C2)N(C)CC[C@@]341 [DIHYDROCODEINE]
AC50: > 30 µM
--
COMPOUND: CN1CCN(C2=Nc3ccccc3Sc3ccc(Cl)cc32)CC1
AC50: 2.1 µM
--
COMPOUND: CCCc1nc(C(C)(C)O)c(C(=O)OCc2oc(=O)oc2C)n1Cc1ccc(-c2ccccc2-c2nnn[nH]2)cc1
AC50: > 10 µM
--
COMPOUND: CCCCCNC(=N)N/N=C/c1c[nH]c2ccc(OC)cc12
AC50: 0.771 µM
--
COMPOUND: Cc1c(OCC(F)(F)F)ccnc1C[S+]([O-])c1nc2ccccc2[nH]1 (stereo unspecified)
AC50: > 10 µM
--
COMPOUND: CC[C@H]1CN2CCc3cc(OC)c(OC)cc3[C@@H]2C[C@@H]1C[C@H]1NCCc2cc(OC)c(OC)cc21
AC50: 0.23 µM
--
COMPOUND: CCC(C(=O)O)c1ccc(N2Cc3ccccc3C2=O)cc1 (stereo unspecified)
AC50: > 30 µM
--
COMPOUND: CCCCCCOc1ccccc1C(N)=O [EXALAMIDE]
AC50: > 30 µM
--
COMPOUND: CN(C)CCC=C1c2ccccc2C=Cc2ccccc21
AC50: 3.9 µM
--
COMPOUND: CC(C)OC(=O)CCC/C=C\C[C@@H]1[C@@H](CC[C@@H](O)CCc2ccccc2)[C@H](O)C[C@@H]1O
AC50: > 30 µM
--
COMPOUND: O=C(O)CCCCCCNC1c2ccccc2CCc2ccccc21
AC50: > 30 µM
--
COMPOUND: O=[N+]([O-])c1cn2c(n1)OC[C@@H](OCc1ccc(OC(F)(F)F)cc1)C2
AC50: > 10 µM
--
COMPOUND: C[C@H](CSC(=O)c1ccccc1)C(=O)N1C[C@@H](Sc2ccccc2)C[C@H]1C(=O)O
AC50: > 10 µM
--
COMPOUND: O=C(Cc1ccc(-c2ccccc2)cc1)Nc1ccccn1 [DIFENPIRAMIDE]
AC50: > 30 µM

----------
AC50 tested on 5-hydroxytryptamine receptor 2C (Homo sapiens, UniProt P28335): recorded values; further: assay procedure not described here
Sequence (P28335 whole entry): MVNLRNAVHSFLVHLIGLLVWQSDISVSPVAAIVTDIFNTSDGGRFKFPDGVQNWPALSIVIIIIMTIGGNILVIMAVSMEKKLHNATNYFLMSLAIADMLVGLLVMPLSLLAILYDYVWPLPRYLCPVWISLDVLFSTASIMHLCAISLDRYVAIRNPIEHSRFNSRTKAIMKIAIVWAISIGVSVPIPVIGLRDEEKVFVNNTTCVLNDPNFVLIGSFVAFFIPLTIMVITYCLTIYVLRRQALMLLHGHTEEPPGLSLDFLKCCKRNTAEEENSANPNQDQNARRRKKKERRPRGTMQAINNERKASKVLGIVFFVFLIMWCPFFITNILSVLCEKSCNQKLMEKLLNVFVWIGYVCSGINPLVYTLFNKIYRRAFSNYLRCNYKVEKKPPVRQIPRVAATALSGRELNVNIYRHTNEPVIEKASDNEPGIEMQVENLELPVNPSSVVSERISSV

COMPOUND: CCCCN1C[C@H](O)[C@@H](O)[C@H](O)[C@H]1CO
AC50: > 30 µM
//
COMPOUND: COC(=O)[C@H]1[C@H]2C[C@@H]3c4[nH]c5cc(OC)ccc5c4CCN3C[C@H]2C[C@@H](OC(=O)/C=C/c2cc(OC)c(OC)c(OC)c2)[C@@H]1OC
AC50: > 30 µM
//
COMPOUND: COc1ccc2c3c1O[C@H]1[C@@H](O)C=C[C@H]4[C@@H](C2)N(C)CC[C@@]341
AC50: > 30 µM
//
COMPOUND: CCCc1nc(C(C)(C)O)c(C(=O)OCc2oc(=O)oc2C)n1Cc1ccc(-c2ccccc2-c2nnn[nH]2)cc1
AC50: > 10 µM
//
COMPOUND: CC(C)C[C@H]1C(=O)N2CCC[C@H]2[C@]2(O)O[C@](NC(=O)[C@@H]3C=C4c5cccc6[nH]c(Br)c(c56)C[C@H]4N(C)C3)(C(C)C)C(=O)N12
AC50: 12 µM
//
COMPOUND: CC(=O)NCCCS(=O)(=O)O [ACAMPROSATE]
AC50: > 30 µM
//
COMPOUND: c1cnc(N2CCN(Cc3ccc4c(c3)OCO4)CC2)nc1
AC50: > 30 µM
//
COMPOUND: COc1ccc(CC(C)(C)NC[C@H](O)c2cc(O)cc3c2OCC(=O)N3)cc1
AC50: > 30 µM
//
COMPOUND: COc1ccc2c3c1O[C@H]1[C@@H](O)CC[C@H]4[C@@H](C2)N(C)CC[C@@]341 [DIHYDROCODEINE]
AC50: > 10 µM
//
COMPOUND: COc1ccc(-c2ccc3cc(C(=O)O)ccc3c2)cc1C12CC3CC(CC(C3)C1)C2
AC50: > 30 µM
//
COMPOUND: CN(C)CCC=C1c2ccccc2C(C)(C)c2ccccc21
AC50: 5.8 µM
//
COMPOUND: COC(=O)C1=C(C)NC(C)=C(C(=O)OC(C)(C)CN(C)CCC(c2ccccc2)c2ccccc2)C1c1cccc([N+](=O)[O-])c1 (configuration not stated)
AC50: > 30 µM
//
COMPOUND: CC(=O)O[C@H]1CC[C@@]2(C)C(=CC[C@@H]3[C@@H]2CC[C@]2(C)C(c4cccnc4)=CC[C@@H]32)C1 [ABIRATERONE ACETATE]
AC50: > 30 µM
//
COMPOUND: COc1cccc(C2(O)CCCCC2CN(C)C)c1 (configuration not stated)
AC50: > 30 µM
//
COMPOUND: O=C1Nc2ccc(Cl)cc2[C@@](C#CC2CC2)(C(F)(F)F)O1
AC50: 5.61 µM
//
COMPOUND: Nc1nc(Cl)nc2c1ncn2[C@H]1C[C@H](O)[C@@H](CO)O1
AC50: > 30 µM
//
COMPOUND: CCCC(=O)O[C@]1(C(=O)CO)CC[C@H]2[C@@H]3CCC4=CC(=O)CC[C@]4(C)[C@H]3[C@@H](O)C[C@@]21C [HYDROCORTISONE BUTYRATE]
AC50: > 30 µM
//
COMPOUND: O=[N+]([O-])O[C@@H]1CO[C@H]2[C@@H]1OC[C@@H]2O [ISOSORBIDE MONONITRATE]
AC50: > 30 µM
//
COMPOUND: CNC1Cc2ccccc2N(C)c2ccccc21 (configuration not stated)
AC50: 29 µM
//
COMPOUND: Clc1ccc(C(c2ccccc2Cl)C(Cl)Cl)cc1 (configuration not stated)
AC50: > 30 µM
//
COMPOUND: CC(CC1c2ccccc2CCc2ccccc21)CN(C)C (configuration not stated)
AC50: 3 µM
//
COMPOUND: Cc1ccc(S(=O)(=O)NC(=O)NN2CC3CCCC3C2)cc1 (configuration not stated) [GLICLAZIDE]
AC50: > 30 µM
